Where these numbers come from: paper PMC4336329

Biological target: human ether-à-go-go-related gene (hERG) potassium channel (human)
Sequence (Q12809 whole entry, looked up): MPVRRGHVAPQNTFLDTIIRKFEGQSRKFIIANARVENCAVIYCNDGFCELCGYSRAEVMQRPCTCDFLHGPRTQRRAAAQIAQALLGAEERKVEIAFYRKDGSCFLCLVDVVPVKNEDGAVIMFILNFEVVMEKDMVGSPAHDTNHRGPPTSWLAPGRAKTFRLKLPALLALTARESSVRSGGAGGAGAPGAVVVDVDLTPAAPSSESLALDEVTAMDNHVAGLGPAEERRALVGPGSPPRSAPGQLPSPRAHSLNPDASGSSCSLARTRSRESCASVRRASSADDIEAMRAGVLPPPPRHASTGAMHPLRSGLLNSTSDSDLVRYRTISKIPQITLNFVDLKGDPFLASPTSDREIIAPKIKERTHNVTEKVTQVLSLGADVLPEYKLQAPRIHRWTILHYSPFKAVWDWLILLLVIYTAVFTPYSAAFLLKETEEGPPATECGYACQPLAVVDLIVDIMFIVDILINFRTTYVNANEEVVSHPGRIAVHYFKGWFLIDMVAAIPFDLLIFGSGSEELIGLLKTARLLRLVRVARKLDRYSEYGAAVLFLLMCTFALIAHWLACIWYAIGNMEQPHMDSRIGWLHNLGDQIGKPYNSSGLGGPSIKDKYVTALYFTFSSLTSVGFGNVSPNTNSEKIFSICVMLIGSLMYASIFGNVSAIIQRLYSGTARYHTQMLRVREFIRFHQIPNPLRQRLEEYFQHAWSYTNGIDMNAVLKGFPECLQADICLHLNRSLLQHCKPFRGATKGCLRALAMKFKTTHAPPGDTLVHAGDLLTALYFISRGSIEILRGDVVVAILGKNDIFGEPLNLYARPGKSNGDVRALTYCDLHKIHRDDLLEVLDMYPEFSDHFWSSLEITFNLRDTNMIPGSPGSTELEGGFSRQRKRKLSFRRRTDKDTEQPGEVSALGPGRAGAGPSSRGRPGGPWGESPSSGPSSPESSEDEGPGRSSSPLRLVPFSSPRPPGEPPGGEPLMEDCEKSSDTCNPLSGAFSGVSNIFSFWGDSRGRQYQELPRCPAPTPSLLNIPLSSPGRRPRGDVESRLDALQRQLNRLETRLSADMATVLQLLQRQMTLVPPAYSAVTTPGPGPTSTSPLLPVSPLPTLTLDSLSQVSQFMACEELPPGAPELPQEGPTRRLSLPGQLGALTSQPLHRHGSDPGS
Test: primary screen, population patch clamp on CHO cells stably expressing hERG; higher = less effect of the substance
The campaign covered roughly 310,000 compounds. About 2,200 (0.71%) showed an effect of 50% or more. The effect is printed as a negative number. Only a selection was taken, and strong results are over-represented in it overall.
Decision: hERG current change (%, negative = inhibition) at 1uM >= -20% yields 1.0, all other cases yield 0.0.

• COc1ccc2oc(=O)cc(CN3CCOCC3)c2c1 = 1.0
• Cc1cc(C)c2c(CN3CCN(Cc4ccc5c(c4)OCO5)CC3)cc(=O)oc2c1 = 0.0
• CCc1ccc2oc(=O)cc(CN3CCN(Cc4ccccc4)CC3)c2c1 = 1.0
• COc1ccc(OC)c(CN2CCN(Cc3cc(=O)oc4cc(O)ccc34)CC2)c1 = 0.0
• COC(=O)C1CC(=O)N(c2ccc(C)cc2)C1 (stereo not shown) = 1.0
• COC(=O)C1CCN(Cc2cc(=O)oc3cc(OC)ccc23)CC1 = 1.0
• Cc1ccc2c(CN3CCN(Cc4ccccc4)CC3)cc(=O)oc2c1 = 0.0
• CCc1ccc2c(CN3CCOCC3)cc(=O)oc2c1 = 1.0
• Cc1cc2oc(=O)cc(CN3CCN(Cc4ccc5c(c4)OCO5)CC3)c2cc1C = 1.0
• CCc1ccc2c(CN3CCN(Cc4ccccc4)CC3)cc(=O)oc2c1 = 0.0
